Hello, the source for this data is patent US8829011B2, in case you need it.

# study-target: human recombinant 5-HT2C receptor (Homo sapiens)
# Sequence (P28335 33-458): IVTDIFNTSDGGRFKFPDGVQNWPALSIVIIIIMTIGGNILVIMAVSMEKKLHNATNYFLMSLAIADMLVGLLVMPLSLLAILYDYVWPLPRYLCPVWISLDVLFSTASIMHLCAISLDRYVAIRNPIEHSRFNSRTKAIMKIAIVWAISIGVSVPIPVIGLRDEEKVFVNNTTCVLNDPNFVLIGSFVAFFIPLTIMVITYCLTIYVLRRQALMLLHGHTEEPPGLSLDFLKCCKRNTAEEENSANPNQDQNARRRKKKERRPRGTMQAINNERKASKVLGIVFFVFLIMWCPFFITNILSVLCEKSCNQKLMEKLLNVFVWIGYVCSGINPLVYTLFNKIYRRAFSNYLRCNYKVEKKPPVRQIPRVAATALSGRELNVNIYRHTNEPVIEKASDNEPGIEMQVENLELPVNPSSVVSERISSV
# assay-info: Affinity for 5-HT2C receptor binding sites (competitive radioligand binding, [3H]mesulergine)
# measurement-conditions: membranes of CHO with h5-HT2C, * = tested as hydrochloride salt
pKi: −log10 of the molar value.
Below: a set of entries, each annotated with reported pKi.

{"columns": ["compound", "study-target", "operator", "pKi"],
 "data": [
  ["Cc1ccc(-c2nc(N3CCCC3C)nc3c2CCNCC3)cc1Cl (stereo not drawn) [Example 77]", "human recombinant 5-HT2C receptor (Homo sapiens)", "=", 7.48],
  ["CC1CCCN1c1nc2c(c(-c3ccc(Cl)cc3)n1)CNCCC2 (stereo not drawn) [Example 53]", "human recombinant 5-HT2C receptor (Homo sapiens)", "<", 5.00],
  ["FC1CCN(c2nc3c(c(-c4ccc(Cl)cc4)n2)CCNCC3)CC1 [Example 68]", "human recombinant 5-HT2C receptor (Homo sapiens)", "=", 8.30],
  ["CCN(CC)c1nc2c(c(-c3ccc(F)cc3)n1)CCN(Cc1ccccc1)C2 [Example 23]", "human recombinant 5-HT2C receptor (Homo sapiens)", "=", 5.55],
  ["CC(C)c1ccc(-c2nc(N3CCS(=O)(=O)CC3)nc3c2CCNCC3)cc1 [Example 101]", "human recombinant 5-HT2C receptor (Homo sapiens)", "=", 5.42],
  ["COc1ccc(-c2nc(N3[C@H](C)CCC[C@@H]3C)nc3c2CCNCC3)cc1F [Example 89]", "human recombinant 5-HT2C receptor (Homo sapiens)", "=", 7.48],
  ["CCN(CC)c1nc2c(c(-c3ccc(OC)cc3)n1)CCN(Cc1ccccc1)C2 [Example 27]", "human recombinant 5-HT2C receptor (Homo sapiens)", "<", 5.00],
  ["Cc1ccc(-c2nc(N3CCCC3)nc3c2CNCC3)cc1 [Example 47]", "human recombinant 5-HT2C receptor (Homo sapiens)", "=", 5.80],
  ["CCN(CC)c1nc2c(c(-c3ccc(C#N)cc3)n1)CCCNC2 [Example 4]", "human recombinant 5-HT2C receptor (Homo sapiens)", "=", 5.05]
]}

* * *

# study-target: human recombinant 5-HT2C receptor (Homo sapiens, UniProt P28335)
# assay-info: Affinity for 5-HT2C receptor binding sites (competitive radioligand binding, [3H]mesulergine)
# measurement-conditions: membranes of CHO with h5-HT2C, * = tested as hydrochloride salt
Below: a set of entries, each annotated with reported Ki.

{"columns": ["compound", "output-unit", "Ki"],
 "data": [
  ["CC1CCCN1c1nc2c(c(-c3ccc(Cl)cc3)n1)CCNCC2 (centres unmarked)", "nM", 89],
  ["CCN(CC)c1nc2c(c(-c3ccc(Cl)cc3)n1)CCNCC2", "nM", 100],
  ["Cc1ccc(-c2nc(N3CCS(=O)(=O)CC3)nc3c2CCN(C)CC3)cc1", "nM", 960],
  ["CCN(CC)c1nc2c(c(-c3ccc(F)cc3)n1)CCNC2", "nM", 120],
  ["Cc1ccc(-c2nc(N3CCOC[C@@H]3C)nc3c2CCNCC3)cc1F", "nM", 92]
]}

* * *

# study-target: human recombinant 5-HT2C receptor (Homo sapiens)
# Construct: expressed in transfected cells; host or cells: CHO
# assay-info: Affinity for 5-HT2C receptor binding sites (competitive radioligand binding, [3H]mesulergine)
# measurement-conditions: membranes of CHO with h5-HT2C, * = tested as hydrochloride salt
Counter-ions that a name gives are not always drawn.
Below: a set of entries, each annotated with reported Ki.

{"columns": ["compound", "Ki, nM"],
 "data": [
  ["CCN(CC)c1nc2c(c(-c3ccc(C#N)cc3)n1)CCNCC2 [Example 14, hydrochloride]", 130],
  ["CC(C)N(c1nc2c(c(-c3ccc(F)cc3)n1)CNCC2)C(C)C [Example 43, hydrochloride]", 150],
  ["CC1CCCN1c1nc2c(c(-c3ccc(F)cc3)n1)CNCC2 (stereo not shown) [Example 38, hydrochloride]", 65],
  ["C[C@H]1COCCN1c1nc2c(c(-c3ccc(Cl)cc3)n1)CCNCC2 [Example 96]", 69]
]}

* * *

Below: a set of entries, each annotated with reported pKi.
# study-target: human recombinant 5-HT6 receptor (Homo sapiens)
# Sequence (P50406 whole entry): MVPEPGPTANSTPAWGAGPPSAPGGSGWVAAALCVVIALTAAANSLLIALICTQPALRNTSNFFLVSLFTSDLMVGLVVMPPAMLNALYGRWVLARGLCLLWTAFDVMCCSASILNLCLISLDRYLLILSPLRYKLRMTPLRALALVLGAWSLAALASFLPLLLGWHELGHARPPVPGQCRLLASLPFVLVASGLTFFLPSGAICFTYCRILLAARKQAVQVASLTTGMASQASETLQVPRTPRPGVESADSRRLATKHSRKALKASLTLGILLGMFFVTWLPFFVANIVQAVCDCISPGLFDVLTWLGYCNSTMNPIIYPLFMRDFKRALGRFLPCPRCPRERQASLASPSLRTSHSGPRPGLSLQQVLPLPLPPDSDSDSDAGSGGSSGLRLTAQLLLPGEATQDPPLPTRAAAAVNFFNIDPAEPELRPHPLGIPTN
# assay-info: Affinity for 5-HT6 receptor binding sites (competitive radioligand binding, [3H]LSD)
# measurement-conditions: membranes of HEK-293 with h5-HT6, * = tested as hydrochloride salt
# Protocol: Stock drug solutions (10 mM) were prepared in DMSO (the final assay concentration of DMSO not exceeding 0.4%). Drug dilutions were prepared in assay buffer. Sigmoidal inhibition curves were generated and fitted by nonlinear regression analysis (GraphPad Prism). 3. […] Receptor binding was performed using the human recombinant 5-HT6 (GB: BC0794995) receptor. The affinity of the compounds for the human 5-HT6 receptor was evaluated by competitive radioligand binding assays using [^3H]LSD. […]
pKi: −log10 of the molar value. Structures can show the parent of a compound that is named as a salt.

{"columns": ["molecule", "study-target", "pKi"],
 "data": [
  ["c1ccc2ncc(-c3nc(N4CCOCC4)nc4c3CCNCC4)cc2c1", "human recombinant 5-HT6 receptor (Homo sapiens)", 7.15],
  ["COc1ccc(-c2nc(N3CCCCC3C)nc3c2CCCNC3)cc1 (stereo not drawn) [Example 5, hydrochloride]", "human recombinant 5-HT6 receptor (Homo sapiens)", 6.90],
  ["C[C@@H]1CCC[C@H](C)N1c1nc2c(c(-c3ccc(Cl)c(Cl)c3)n1)CCNCC2", "human recombinant 5-HT6 receptor (Homo sapiens)", 7.21]
]}

* * *

# study-target: human recombinant 5-HT2A receptor (Homo sapiens, UniProt P28223)
# Sequence (P28223 whole entry): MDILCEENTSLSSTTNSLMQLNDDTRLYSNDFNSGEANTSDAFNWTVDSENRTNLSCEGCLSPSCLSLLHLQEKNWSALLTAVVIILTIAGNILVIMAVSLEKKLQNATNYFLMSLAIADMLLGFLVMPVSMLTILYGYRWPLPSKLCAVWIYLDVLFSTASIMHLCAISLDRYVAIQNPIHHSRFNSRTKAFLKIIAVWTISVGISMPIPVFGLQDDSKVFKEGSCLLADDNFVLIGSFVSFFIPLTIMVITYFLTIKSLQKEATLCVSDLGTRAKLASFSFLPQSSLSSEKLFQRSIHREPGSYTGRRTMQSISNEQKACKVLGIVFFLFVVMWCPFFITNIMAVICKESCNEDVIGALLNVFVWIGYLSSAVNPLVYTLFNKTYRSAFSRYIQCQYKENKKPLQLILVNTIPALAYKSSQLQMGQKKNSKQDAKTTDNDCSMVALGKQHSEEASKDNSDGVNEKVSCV
# assay-info: Affinity for 5-HT2A receptor binding sites (competitive radioligand binding, [3H]ketanserin)
# measurement-conditions: membranes of NIH3T3 with h5-HT2A, * = tested as hydrochloride salt
Structures can show the parent of a compound that is named as a salt.

{"columns": ["compound", "Ki"],
 "data": [
  ["CCN(CC)c1nc2c(c(-c3ccc(OC)cc3)n1)CCN(Cc1ccccc1)C2", "1700 nM"],
  ["Cc1ccc(-c2nc(N3CCOC[C@@H]3C)nc3c2CCNCC3)cc1", "25 nM"],
  ["CCN(CC)c1nc2c(c(-c3ccc(C#N)cc3)n1)CCN(Cc1ccccc1)C2", "650 nM"],
  ["COc1ccc(-c2nc(N3CCCC3C)nc3c2CCNCC3)cc1 (centres unmarked)", "140 nM"],
  ["Cc1ccc(-c2nc(N3CCCC3C)nc3c2CCNCC3)cc1 (centres unmarked)", "28 nM"],
  ["Cc1ccc(-c2nc(NCc3ccccc3)nc3c2CNCC3)cc1", "75 nM"],
  ["Cc1ccc(-c2nc(N3CCCCC3C)nc3c2CCCNC3)cc1 (centres unmarked)", "180 nM"],
  ["Cc1ccc(-c2nc(N3CCCCCC3)nc3c2CCNC3)cc1", "18 nM"],
  ["Clc1ccc(-c2nc(N3CCCCC3)nc3c2CCNCC3)cc1", "4 nM"],
  ["Cc1ccc(-c2nc(N3CCC(F)CC3)nc3c2CCNCC3)cc1", "35 nM"],
  ["Fc1ccc(-c2nc(N3CCOCC3)nc3c2CNCC3)cc1", "20 nM"],
  ["Clc1ccc(-c2nc(N3CCOCC3)nc3c2CCNCC3)cc1", "17 nM"],
  ["CC1CCCN1c1nc2c(c(-c3ccc(F)cc3)n1)CNCC2 (centres unmarked) [Example 38, hydrochloride]", "1.9 nM"],
  ["CC1CCCN1c1nc2c(c(-c3ccc(Cl)cc3)n1)CCNCC2 (centres unmarked)", "30 nM"]
]}

* * *

# study-target: human recombinant 5-HT2B receptor (Homo sapiens)
# Sequence (P41595 whole entry): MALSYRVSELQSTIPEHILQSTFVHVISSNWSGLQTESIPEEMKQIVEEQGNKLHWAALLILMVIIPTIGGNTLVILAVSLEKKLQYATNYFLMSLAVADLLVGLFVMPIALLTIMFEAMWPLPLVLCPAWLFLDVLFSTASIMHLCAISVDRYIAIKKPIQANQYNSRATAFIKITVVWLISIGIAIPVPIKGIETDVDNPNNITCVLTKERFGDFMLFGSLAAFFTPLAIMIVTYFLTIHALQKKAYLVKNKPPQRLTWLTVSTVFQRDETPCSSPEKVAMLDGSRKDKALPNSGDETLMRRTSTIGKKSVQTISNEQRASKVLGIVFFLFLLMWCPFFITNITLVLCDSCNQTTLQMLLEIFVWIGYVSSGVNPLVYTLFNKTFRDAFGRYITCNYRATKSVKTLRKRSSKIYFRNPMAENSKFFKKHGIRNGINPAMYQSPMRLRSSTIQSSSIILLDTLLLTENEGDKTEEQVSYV
# assay-info: Affinity for 5-HT2B receptor binding sites (competitive radioligand binding, [3H]mesulergine)
# measurement-conditions: membranes of CHO with h5-HT2B, * = tested as hydrochloride salt
# Experimental: Stock drug solutions (10 mM) were prepared in DMSO (the final assay concentration of DMSO not exceeding 0.4%). Drug dilutions were prepared in assay buffer. […] Receptor binding was performed using the human recombinant 5-HT2A (GB: X57830), 5-HT2B (GB: Z36748) and 5-HT2C (GB: M81778) receptors. The affinity of the compounds for the 3 different human 5-HT2 receptor subtypes was evaluated by competitive radioligand binding assays using [^3H]ketanserin (h5-HT2A) or [^3H]mesulergine (h5-HT2B and h5-HT2C). […]
pKi: −log10 of the molar value. Structures can show the parent of a compound that is named as a salt.
Parameter threshold = 8. Response is t when pKi meets or exceeds it, else f.

{"columns": ["compound", "class-name"],
 "data": [
  ["CCN(CC)c1nc2c(c(-c3ccc(F)cc3)n1)CCCNC2", "f"],
  ["COc1ccc(-c2nc(N3[C@H](C)CCC[C@@H]3C)nc3c2CCNCC3)cc1", "t"],
  ["CCN(CC)c1nc2c(c(-c3ccc(OC)cc3)n1)CCCNC2", "f"],
  ["Cc1ccc(-c2nc(N3CCS(=O)(=O)CC3)nc3c2CCN(C)CC3)cc1", "f"],
  ["Fc1ccc(-c2nc(N3CCOCC3)nc3c2CNCC3)cc1", "f"],
  ["c1ccc2ncc(-c3nc(N4CCOCC4)nc4c3CCNCC4)cc2c1", "f"],
  ["CCN(CC)c1nc2c(c(-c3ccc(C)cc3)n1)CCN(Cc1ccccc1)C2", "f"],
  ["C[C@H]1COCCN1c1nc2c(c(-c3cc4ccccc4o3)n1)CCNCC2", "f"],
  ["Clc1ccc(-c2nc(NCc3ccccc3)nc3c2CNCCC3)cc1", "f"],
  ["N#Cc1ccc(-c2nc(N3CCCCC3)nc3c2CNCCC3)cc1 [Example 22, hydrochloride]", "f"],
  ["CCN(CC)c1nc2c(c(-c3ccncc3)n1)CCNCC2 [Example 10, hydrochloride]", "f"],
  ["CC1CCCCN1c1nc2c(c(-c3ccc(C#N)cc3)n1)CCCNC2 (stereo not drawn)", "f"],
  ["CCN(CC)c1nc2c(c(-c3ccc(C)cc3)n1)CCCNC2", "f"],
  ["CCN(CC)c1nc2c(c(-c3ccc(C#N)cc3)n1)CCNCC2 [Example 14, hydrochloride]", "t"],
  ["Cc1ccc(-c2nc(N3[C@H](C)CCC[C@@H]3C)nc3c2CCNCC3)cc1", "t"],
  ["Cc1ccc(-c2nc(N3CCOCC3)nc3c2CNCC3)cc1", "f"]
]}
